Origin of measurements: ChEMBL document CHEMBL5370562

Listed next: entries and their corresponding metabolised at 1 h.
Biological target: BuChE (butyrylcholinesterase) (Equus caballus, UniProt P81908)
Sequence (P81908 whole entry): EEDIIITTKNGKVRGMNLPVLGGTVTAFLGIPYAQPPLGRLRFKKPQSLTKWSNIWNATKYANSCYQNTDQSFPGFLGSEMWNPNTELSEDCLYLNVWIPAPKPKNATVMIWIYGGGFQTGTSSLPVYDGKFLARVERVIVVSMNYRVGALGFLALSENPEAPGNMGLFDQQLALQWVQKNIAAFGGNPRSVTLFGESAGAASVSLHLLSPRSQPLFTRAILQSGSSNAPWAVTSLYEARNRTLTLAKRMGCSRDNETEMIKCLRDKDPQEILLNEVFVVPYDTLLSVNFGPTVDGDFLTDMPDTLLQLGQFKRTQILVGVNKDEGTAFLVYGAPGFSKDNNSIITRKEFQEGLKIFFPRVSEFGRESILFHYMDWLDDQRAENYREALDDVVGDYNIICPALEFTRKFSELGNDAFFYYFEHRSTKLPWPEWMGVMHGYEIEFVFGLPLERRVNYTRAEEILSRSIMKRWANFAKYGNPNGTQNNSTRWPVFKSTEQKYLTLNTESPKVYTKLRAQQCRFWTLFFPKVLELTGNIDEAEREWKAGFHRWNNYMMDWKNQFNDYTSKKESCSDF
Experiment: Substrate activity at equine serum BuChE assessed as compound hydrolysis at 10XIC50 measured after 1 hr by HPLC analysis
Format: ADME, cell-free
Details: horse, equine serum butyrylcholinesterase (BuChE), read-out: Drug metabolism

Study these solved cases before continuing.
RECORD_SMILES	STUDY_SYSTEM	metabolised at 1 h
C[N+](C)(C)CCOC(=O)CNC(=O)OCC1c2ccccc2-c2ccccc21	BuChE (butyrylcholinesterase) (Equus caballus, UniProt P81908)	~100%
CC(C)(C)OC(=O)NCCCC[C@H](NC(=O)OCC1c2ccccc2-c2ccccc21)C(=O)OCC[N+](C)(C)C	BuChE (butyrylcholinesterase) (Equus caballus, UniProt P81908)	~25%
CC(C)C[C@H](NC(=O)OCC1c2ccccc2-c2ccccc21)C(=O)OCC[N+](C)(C)C	BuChE (butyrylcholinesterase) (Equus caballus, UniProt P81908)	~50%
C[C@H](NC(=O)OCC1c2ccccc2-c2ccccc21)C(=O)OCC[N+](C)(C)C	BuChE (butyrylcholinesterase) (Equus caballus, UniProt P81908)	~25%
CC(C)(C)OC(=O)n1cc(C[C@H](NC(=O)OCC2c3ccccc3-c3ccccc32)C(=O)OCC[N+](C)(C)C)c2ccccc21	BuChE (butyrylcholinesterase) (Equus caballus, UniProt P81908)	~25%

Could you now look at the following compound, please?
Response field metabolised at 1 h (BuChE (butyrylcholinesterase) (Equus caballus, UniProt P81908)) for item `C[N+](C)(C)CCOC(=O)[C@H](Cc1ccccc1)NC(=O)OCC1c2ccccc2-c2ccccc21` : ~100%
